Molecular target: T1, cynomolgus monkey CD19 on peripheral blood B cells (cynomolgus monkey (Macaca fascicularis), UniProt A0A2K5W8L9 20-557)
T1 construct: whole, on cells; also called cynomolgus monkey B cells
T1 sequence: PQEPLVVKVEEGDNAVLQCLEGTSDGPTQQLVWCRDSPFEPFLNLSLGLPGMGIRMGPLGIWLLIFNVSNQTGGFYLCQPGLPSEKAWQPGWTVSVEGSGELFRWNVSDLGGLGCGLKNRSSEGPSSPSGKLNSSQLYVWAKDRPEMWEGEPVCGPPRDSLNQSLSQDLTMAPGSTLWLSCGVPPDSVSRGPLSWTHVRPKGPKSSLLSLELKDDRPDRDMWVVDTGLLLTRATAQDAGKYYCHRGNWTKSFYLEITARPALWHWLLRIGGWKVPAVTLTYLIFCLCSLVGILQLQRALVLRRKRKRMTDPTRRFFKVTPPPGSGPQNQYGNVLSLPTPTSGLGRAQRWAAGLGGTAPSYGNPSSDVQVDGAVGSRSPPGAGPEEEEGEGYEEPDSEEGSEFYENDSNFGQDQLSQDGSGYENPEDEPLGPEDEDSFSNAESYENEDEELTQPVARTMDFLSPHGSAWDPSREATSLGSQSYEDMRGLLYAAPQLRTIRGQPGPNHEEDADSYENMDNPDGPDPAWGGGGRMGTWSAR
Assay: FACS, cynomolgus PBMC, CD20+ B cells
assay endpoint: Proportion of chimeric antibody positive cells to B cells (%) at 10 nM

Proportion of chimeric antibody positive cells to B cells (%) at 10 nM in this record for F3.126.15 (antibody, human IgG1, V domains shown, human-murine chimeric antibody, human IgG1) VH: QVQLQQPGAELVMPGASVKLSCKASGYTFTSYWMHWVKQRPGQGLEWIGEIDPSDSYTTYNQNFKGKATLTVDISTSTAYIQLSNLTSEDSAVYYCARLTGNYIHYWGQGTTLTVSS VL: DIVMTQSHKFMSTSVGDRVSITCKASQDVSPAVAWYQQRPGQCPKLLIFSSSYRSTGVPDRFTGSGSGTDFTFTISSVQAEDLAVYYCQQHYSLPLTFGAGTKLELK : 27%

Reference for the values: patent US20250042994A1
